Values from patent US20030148956A1

- Test system: T1, CRF2R
- T1 sequence (Q13324 whole entry, species assumed, looked up): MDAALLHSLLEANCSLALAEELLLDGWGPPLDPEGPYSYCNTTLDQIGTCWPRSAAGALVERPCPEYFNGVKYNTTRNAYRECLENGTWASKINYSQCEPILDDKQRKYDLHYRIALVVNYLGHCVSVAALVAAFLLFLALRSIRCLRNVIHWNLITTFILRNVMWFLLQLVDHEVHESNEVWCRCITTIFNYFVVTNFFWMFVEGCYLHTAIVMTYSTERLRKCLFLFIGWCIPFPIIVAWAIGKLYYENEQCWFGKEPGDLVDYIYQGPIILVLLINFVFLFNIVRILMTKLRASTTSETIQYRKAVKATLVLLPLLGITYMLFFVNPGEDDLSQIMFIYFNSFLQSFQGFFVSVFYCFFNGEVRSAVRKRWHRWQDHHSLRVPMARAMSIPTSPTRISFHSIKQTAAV
- Protocol summary: cell-based or functional assay
Ends that are not written are not given here.
Measured metric: CRF2R Emax (%)
Numbers only; they are read as %.

ZGPPISIDLPAYLLRKMIEIEKQEKEKQQAANNRLLLDTI (C-terminal amide) [SEQ ID NO 32] = 98
SQEPPISLDLPFHLLREVLEMTKADQLAQQAHSNRKLLDIA-NH2 [SEQ ID NO 104] = 4.5

Please examine the following record next.
I am curious: what CRF2R Emax value has been reported for ZGPPISIDLPWYLLRKMIEIEKQEKEKQQAANNRLLLDTI (C-terminal amide) [SEQ ID NO 55] ?
95
